relative viability: recorded values
- Test system: NCI-H2023
- protocol.notes: relative viability (nuclei count vs DMSO), 5 days (fraction); higher = more cells survive
- condition.set: first compound 0.01 µM
Lab note: record just the number, no unit beside it.

compound: O=c1cc(N2CCOCC2)oc2c(-c3cccc4c3sc3ccccc34)cccc12 + Cc1nc(NC(=O)N2CCC[C@H]2C(N)=O)sc1-c1ccnc(C(C)(C)C(F)(F)F)c1 [Alpelisib] (partner 2 µM)
attribute.measured: relative viability
value.reported: 0.653

compound: CCN(CC)CCCCNc1ncc2cc(-c3cc(OC)cc(OC)c3)c(NC(=O)NC(C)(C)C)nc2n1 + Nc1nc2[nH]cc(CCc3ccc(C(=O)N[C@@H](CCC(=O)O)C(=O)O)cc3)c2c(=O)[nH]1 [Pemetrexed] (partner 0.2 µM)
attribute.measured: relative viability
value.reported: 0.264

Challenge: Need relative viability, item CCN(CC)CCCCNc1ncc2cc(-c3cc(OC)cc(OC)c3)c(NC(=O)NC(C)(C)C)nc2n1 + Cc1nc(Nc2ncc(C(=O)Nc3c(C)cccc3Cl)s2)cc(N2CCN(CCO)CC2)n1 [Dasatinib] (partner 0.075 µM)
Response given: 0.548

Challenge: Need relative viability, item CCN(CC)CCCCNc1ncc2cc(-c3cc(OC)cc(OC)c3)c(NC(=O)NC(C)(C)C)nc2n1 + N=C(N)NC(=N)NCCc1ccccc1 [Phenformin] (partner 250 µM)
Response given: 0.415

Challenge: Need relative viability, item O=c1cc(N2CCOCC2)oc2c(-c3cccc4c3sc3ccccc34)cccc12 + CCNC(=O)c1noc(-c2cc(C(C)C)c(O)cc2O)c1-c1ccc(CN2CCOCC2)cc1 [Luminespib] (partner 0.01 µM)
Response given: 0.672

---

- Test system: HCC-78
- protocol.notes: relative viability (nuclei count vs DMSO), 5 days (fraction); higher = more cells survive
- condition.set: first compound 0.1 µM
attribute.measured: relative viability
Lab note: record just the number, no unit beside it.

A selection of reference data follows.
compound: CCN(CC)CCCCNc1ncc2cc(-c3cc(OC)cc(OC)c3)c(NC(=O)NC(C)(C)C)nc2n1 + COc1cccc2cc(-c3nc([C@H]4CC[C@H](C(=O)O)CC4)n4ncnc(N)c34)[nH]c12 [OSI-027] (partner 0.5 µM)
value.reported: 0.468
--
compound: CCN(CC)CCCCNc1ncc2cc(-c3cc(OC)cc(OC)c3)c(NC(=O)NC(C)(C)C)nc2n1 + C[C@@H](Oc1cc(-c2cnn(C3CCNCC3)c2)cnc1N)c1c(Cl)ccc(F)c1Cl [Crizotinib] (partner 1 µM)
value.reported: 0.347
--
compound: CCN(CC)CCCCNc1ncc2cc(-c3cc(OC)cc(OC)c3)c(NC(=O)NC(C)(C)C)nc2n1 + CC1(C)CCC(c2ccc(Cl)cc2)=C(CN2CCN(c3ccc(C(=O)NS(=O)(=O)c4ccc(N[C@H](CCN5CCOCC5)CSc5ccccc5)c(S(=O)(=O)C(F)(F)F)c4)cc3)CC2)C1 [Navitoclax] (partner 0.5 µM)
value.reported: 0.618
--
compound: O=c1cc(N2CCOCC2)oc2c(-c3cccc4c3sc3ccccc34)cccc12 + COc1cc2c(Oc3ccc(NC(=O)C4(C(=O)Nc5ccc(F)cc5)CC4)cc3F)ccnc2cc1OCCCN1CCOCC1 [Foretinib] (partner 0.25 µM)
value.reported: 0.544
--
compound: O=c1cc(N2CCOCC2)oc2c(-c3cccc4c3sc3ccccc34)cccc12 + CC(=O)Nc1cccc(-n2c(=O)n(C3CC3)c(=O)c3c(Nc4ccc(I)cc4F)n(C)c(=O)c(C)c32)c1 [Trametinib] (partner 0.02 µM)
value.reported: 0.899
--
compound: CCN(CC)CCCCNc1ncc2cc(-c3cc(OC)cc(OC)c3)c(NC(=O)NC(C)(C)C)nc2n1 + O=C(c1cc(Cc2n[nH]c(=O)c3ccccc23)ccc1F)N1CCN(C(=O)C2CC2)CC1 [Olaparib] (partner 8 µM)
value.reported: 0.802

Challenge: Need relative viability, item CCN(CC)CCCCNc1ncc2cc(-c3cc(OC)cc(OC)c3)c(NC(=O)NC(C)(C)C)nc2n1 + Nc1nc2[nH]cc(CCc3ccc(C(=O)N[C@@H](CCC(=O)O)C(=O)O)cc3)c2c(=O)[nH]1 [Pemetrexed] (partner 0.2 µM)
Response given: 0.949

Challenge: Need relative viability, item O=c1cc(N2CCOCC2)oc2c(-c3cccc4c3sc3ccccc34)cccc12 + CS(=O)(=O)CCNCc1ccc(-c2ccc3ncnc(Nc4ccc(OCc5cccc(F)c5)c(Cl)c4)c3c2)o1 [Lapatinib] (partner 2 µM)
Response given: 0.785
